Baseline systolic BP values for the molecules below.
# Organism: Rattus norvegicus
# experiment-description: Antihypertensive activity expressed as percentage of base-line systolic blood pressure of base-line values in spontaneously hypertensive rats (SHR) was reported after 4 hr; note: test concentration or dose not given here
# Type: functional, Artery
Give just the number in %; leave the unit off.

molecule: COCCc1ccc(OCC(O)CNC(C)C)cc1 (stereo unspecified)
value-observed: -2

molecule: CC(C)NCC(O)COc1ccc(CCOC2CCCC2)cc1 (stereo unspecified)
value-observed: -11

molecule: CC(C)NCC(O)COc1ccc(CCOCC2CC2)cc1.Cl (stereo unspecified) [BETAXOLOL HYDROCHLORIDE]
value-observed: -19

molecule: CC(C)NCC(O)COc1ccc(CCOCC2CCC2)cc1.Cl (stereo unspecified)
value-observed: -16

molecule: CC(C)NCC(O)COc1cccc2ccccc12 (stereo unspecified)
value-observed: 0

Query: Need Baseline systolic BP, item CC(C)NC[C@H](O)COc1ccc(CCOCC2CC2)cc1
Result: -12

Query: Requested read-out: Baseline systolic BP. Entry: CC(C)NCC(O)COc1ccc(CCOC2CCCCC2)cc1 (stereo unspecified)
Result: -2

Query: Reported Baseline systolic BP for CC(C)NCC(O)COc1ccc(CCCOCC2CCC2)cc1.O=C(O)C(=O)O (stereo unspecified) : what is it?
Result: -11

Query: Please report the recorded Baseline systolic BP for COc1ccc(CCNCC(O)COc2ccc(CCOCC3CCC3)cc2)cc1OC.Cl (stereo unspecified) .
Result: -5

Query: Entry CC(CC#N)NCC(O)COc1ccc(CCOCC2CCC2)cc1.Cl (stereo unspecified) : reported Baseline systolic BP = ?
Result: -4

Query: Find the recorded Baseline systolic BP belonging to CC(C)NCC(O)COc1ccc(COCC2CCC2)cc1.Cl (stereo unspecified) and report it.
Result: -6
